# reported TGI; entries follow
system: M14 melanoma; assay: NCI tumour cell line growth inhibition, 48 h

// known answers, use as guide
Please look up its TGI: O=C(Nc1ccc(N2C(=O)CSC2c2cccs2)cc1)c1ccc(N2C(=O)CSC2c2cccs2)cc1 (stereo not given)
> 100 µM

Same again, this time with O=C1CCCCCCCCCCC1CN(Cc1ccccc1)Cc1ccccc1 (stereo not given)
> 100 µM

Same again, this time with CCN(CC)C(=O)N[C@@H](Cc1ccccc1)C(=O)NC
> 100 µM

Same again, this time with O=C(O)CP(=O)(c1ccccc1)c1ccccc1.O=C(O)CP(=O)(c1ccccc1)c1ccccc1.[Cd]
53.8 µM

Same again, this time with O=C(/C=C/c1ccc(O)cc1)c1cc(O)cc(O)c1
29.3 µM

---
Please look up its TGI: O=C(NCCCCCCNC(=O)NC1OCC(O)C(O)C1O)NC1OCC(O)C(O)C1O (stereo not given)
> 100 µM

Same again, this time with CCCCC/C=C\C/C=C/CCCCCCCCNC(=O)Nc1ccc([N+](=O)[O-])cc1
77.5 µM

Same again, this time with O=[N+]([O-])c1ccc(NN=C2c3ccccc3Cc3ccccc32)c([N+](=O)[O-])c1
> 100 µM

Same again, this time with O=C(NCc1cccs1)OC1CC2CCC1C2 (stereo not given)
> 100 µM

Same again, this time with Cc1ccc(-c2n[nH]c(=O)n2N2C(=O)C=CC2=O)cc1
> 100 µM

The origin of these recorded values is PubChem BioAssay (NCI).
